- Target desc: G-protein coupled receptor 183 (Homo sapiens)
- Assay method text: EBI2 receptor antagonists, beta-arrestin recruitment, primary screen, cell-based, luminescence, 7a,25-OHC stimulation, uHTS (AID 651636);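 also: enzyme fragment complementation signal reports receptor beta-arrestin coupling in cells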
- Condition notes: 7a,25-OHC stimulated, at 5 µM, active compounds read high
Among all 360,000 compounds or so, about 3,000 (0.83%) were called active. Shown is part of a subset that was picked to be rich in actives.
If the reported inhibition equals or exceeds 30%, assign Condition met. If not, assign Condition not met.

Known results for molecules:
CCn1c(=S)sc2c(=O)n(CC(=O)Nc3ccc(OC)cc3)c(C)nc21: Condition not met
CCOC(=O)[C@]12CCCC=C1N(CCC1=CCCCC1)C(=O)[C@H](CC(=O)N1CCSCC1)C2: Condition not met
COc1ccc(/C=N/N=C/c2c[nH]c(=O)c(C#N)c2Nc2ccccc2)cc1: Condition met
Cc1cccc(NC(=O)c2nc(S(=O)(=O)Cc3ccccc3)ncc2Cl)c1: Condition met
Clc1ccc(-c2cc(C3CCNCC3)[nH]n2)c(Cl)c1: Condition not met

With those in mind, consider the next molecule.
// query Decide: inhibition of NC(=O)C1(N2CCCCC2)CCN(C2CC(=O)N(Cc3ccc(N4CCCC4=O)cc3)C2=O)CC1 (configuration not stated) >= 30%?
// result Condition not met
